# SYSTEM_NAME: EIF2AK3 (human) (UniProt Q9NZJ5)
# Sequence (Q9NZJ5 whole entry, looked up): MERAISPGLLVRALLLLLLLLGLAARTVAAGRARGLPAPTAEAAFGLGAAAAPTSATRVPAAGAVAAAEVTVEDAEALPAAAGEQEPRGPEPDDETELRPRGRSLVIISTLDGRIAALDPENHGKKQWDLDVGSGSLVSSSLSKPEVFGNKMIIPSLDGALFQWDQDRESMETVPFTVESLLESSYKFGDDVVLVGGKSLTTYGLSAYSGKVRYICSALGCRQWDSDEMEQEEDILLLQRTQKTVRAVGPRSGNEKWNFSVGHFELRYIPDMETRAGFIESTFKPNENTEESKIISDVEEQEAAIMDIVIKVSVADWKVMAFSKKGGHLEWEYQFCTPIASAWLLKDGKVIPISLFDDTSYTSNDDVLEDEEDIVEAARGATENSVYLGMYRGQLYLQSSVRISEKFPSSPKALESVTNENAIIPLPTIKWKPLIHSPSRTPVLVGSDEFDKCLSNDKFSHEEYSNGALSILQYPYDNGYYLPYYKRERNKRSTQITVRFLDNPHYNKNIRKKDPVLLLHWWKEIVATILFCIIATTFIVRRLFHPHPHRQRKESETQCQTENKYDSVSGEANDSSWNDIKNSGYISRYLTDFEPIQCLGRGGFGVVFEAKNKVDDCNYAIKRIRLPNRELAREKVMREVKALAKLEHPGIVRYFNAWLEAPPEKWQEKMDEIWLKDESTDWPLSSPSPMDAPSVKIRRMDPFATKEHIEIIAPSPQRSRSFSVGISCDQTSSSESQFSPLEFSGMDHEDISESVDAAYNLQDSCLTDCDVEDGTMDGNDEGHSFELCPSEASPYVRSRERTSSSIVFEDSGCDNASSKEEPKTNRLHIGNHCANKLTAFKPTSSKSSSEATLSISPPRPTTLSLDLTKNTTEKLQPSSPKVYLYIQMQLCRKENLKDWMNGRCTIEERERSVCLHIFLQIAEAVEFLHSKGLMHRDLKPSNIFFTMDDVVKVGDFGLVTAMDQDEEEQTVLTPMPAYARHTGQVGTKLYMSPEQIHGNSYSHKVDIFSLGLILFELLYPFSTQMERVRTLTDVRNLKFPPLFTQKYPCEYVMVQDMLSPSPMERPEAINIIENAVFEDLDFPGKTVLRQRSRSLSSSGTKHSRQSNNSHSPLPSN
# TEST_DESCRIPTION: radiometric filter-binding kinase assay
# CONDITION_INFO: compound 10.0 µM
MEASUREMENT_NAME: residual activity (%)
Hi! Could you send only the number? It should be in %, unit omitted.

# molecule `NC(=O)c1cc(-c2ccnc(NC3CCCCC3)c2)nc(N2CCNCC2)c1` ; its residual activity = 97

# molecule `C=CC(=O)N1CCC[C@@H](n2nc(-c3ccc(Oc4ccccc4)cc3)c3c(N)ncnc32)C1` ; its residual activity = 28

# molecule `Cc1ccc(-c2ccc3c(ccc4sc5c(c43)NC[C@@H](C)NC5=O)n2)cn1` ; its residual activity = 73

# molecule `CC(C)(C#N)c1ccc(N2C(=O)OCc3cnc4ccc(-c5cnc6ccccc6c5)cc4c32)cc1` ; its residual activity = 97

# molecule CC1=C(CO)C(=O)O[C@@H]([C@@H](C)[C@H]2CC[C@H]3[C@@H]4C[C@H]5O[C@]56[C@@H](O)C=CC(=O)[C@]6(C)C4CC[C@]23C)C1 (stereo not given in full) ; its residual activity = 115

---

# SYSTEM_NAME: DYRK3 (human) (UniProt O43781)
# Sequence (O43781 whole entry, looked up): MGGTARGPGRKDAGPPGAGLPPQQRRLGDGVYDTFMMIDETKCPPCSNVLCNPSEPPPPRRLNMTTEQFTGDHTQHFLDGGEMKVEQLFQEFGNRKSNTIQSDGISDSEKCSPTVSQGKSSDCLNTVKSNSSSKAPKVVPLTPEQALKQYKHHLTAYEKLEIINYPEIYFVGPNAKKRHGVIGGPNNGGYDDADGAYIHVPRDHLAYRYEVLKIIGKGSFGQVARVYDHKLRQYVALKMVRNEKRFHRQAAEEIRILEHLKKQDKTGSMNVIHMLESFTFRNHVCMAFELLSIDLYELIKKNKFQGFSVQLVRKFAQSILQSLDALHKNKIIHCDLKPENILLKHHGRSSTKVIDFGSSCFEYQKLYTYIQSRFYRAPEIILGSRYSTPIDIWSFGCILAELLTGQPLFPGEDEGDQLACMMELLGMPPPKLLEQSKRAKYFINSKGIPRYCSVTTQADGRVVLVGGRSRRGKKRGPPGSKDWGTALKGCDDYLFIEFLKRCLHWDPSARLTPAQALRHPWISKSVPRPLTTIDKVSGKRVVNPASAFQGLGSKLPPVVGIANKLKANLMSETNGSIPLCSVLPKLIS
# TEST_DESCRIPTION: radiometric filter-binding kinase assay
# CONDITION_INFO: compound 0.1 µM
MEASUREMENT_NAME: residual activity (%)
Hi! Could you send only the number? It should be in %, unit omitted.

# compound `C/C(=C1/C(=O)Nc2ccc(NC(N)=O)cc21)c1ccc[nH]1` ; its residual activity = 33

# compound CNC(=O)C1[C@H]2O[C@@](C)([C@@H]1N)n1c3ccccc3c3c4c(c5c6ccccc6n2c5c31)C(=O)NC4 (some centres undefined) ; its residual activity = 4

# compound `Cc1cc(NC(=O)c2cccc(NC(=O)/C=C/CN(C)C)c2)ccc1Nc1nccc(-c2cccnc2)n1` ; its residual activity = 94

# compound `CN(C)C/C=C/C(=O)Nc1cccc(C(=O)Nc2ccc(Nc3nccc(-c4cccnc4)n3)cc2)c1` ; its residual activity = 81

# compound `NC1(c2ccc(-c3nc4ccn5c(=O)[nH]nc5c4cc3-c3ccccc3)cc2)CCC1` ; its residual activity = 98

# compound COc1ccc2c(c1)c1c3c(c4c5ccccc5n(C)c4c1n2CC(O)CN(C)C)C(=O)NC3=O (centres undefined) ; its residual activity = 92

# compound `O=C(N[C@@H](COc1ccc2[nH]c(=O)[nH]c2c1)c1ccccc1)c1cccn(Cc2ccc(F)c(F)c2)c1=O` ; its residual activity = 109

# compound COc1cc(O)c2c(c1)[C@H]1OC1C[C@H](O)[C@H](O)C(=O)/C=C\C[C@H](C)OC2=O (some centres undefined) ; its residual activity = 109

# compound `NC(=O)c1cc2c(-c3cccc(-c4ccccc4)c3)cnc(N)c2s1` ; its residual activity = 97

---

# SYSTEM_NAME: WNK1 (human) (UniProt Q9H4A3)
# Sequence (Q9H4A3 whole entry, looked up): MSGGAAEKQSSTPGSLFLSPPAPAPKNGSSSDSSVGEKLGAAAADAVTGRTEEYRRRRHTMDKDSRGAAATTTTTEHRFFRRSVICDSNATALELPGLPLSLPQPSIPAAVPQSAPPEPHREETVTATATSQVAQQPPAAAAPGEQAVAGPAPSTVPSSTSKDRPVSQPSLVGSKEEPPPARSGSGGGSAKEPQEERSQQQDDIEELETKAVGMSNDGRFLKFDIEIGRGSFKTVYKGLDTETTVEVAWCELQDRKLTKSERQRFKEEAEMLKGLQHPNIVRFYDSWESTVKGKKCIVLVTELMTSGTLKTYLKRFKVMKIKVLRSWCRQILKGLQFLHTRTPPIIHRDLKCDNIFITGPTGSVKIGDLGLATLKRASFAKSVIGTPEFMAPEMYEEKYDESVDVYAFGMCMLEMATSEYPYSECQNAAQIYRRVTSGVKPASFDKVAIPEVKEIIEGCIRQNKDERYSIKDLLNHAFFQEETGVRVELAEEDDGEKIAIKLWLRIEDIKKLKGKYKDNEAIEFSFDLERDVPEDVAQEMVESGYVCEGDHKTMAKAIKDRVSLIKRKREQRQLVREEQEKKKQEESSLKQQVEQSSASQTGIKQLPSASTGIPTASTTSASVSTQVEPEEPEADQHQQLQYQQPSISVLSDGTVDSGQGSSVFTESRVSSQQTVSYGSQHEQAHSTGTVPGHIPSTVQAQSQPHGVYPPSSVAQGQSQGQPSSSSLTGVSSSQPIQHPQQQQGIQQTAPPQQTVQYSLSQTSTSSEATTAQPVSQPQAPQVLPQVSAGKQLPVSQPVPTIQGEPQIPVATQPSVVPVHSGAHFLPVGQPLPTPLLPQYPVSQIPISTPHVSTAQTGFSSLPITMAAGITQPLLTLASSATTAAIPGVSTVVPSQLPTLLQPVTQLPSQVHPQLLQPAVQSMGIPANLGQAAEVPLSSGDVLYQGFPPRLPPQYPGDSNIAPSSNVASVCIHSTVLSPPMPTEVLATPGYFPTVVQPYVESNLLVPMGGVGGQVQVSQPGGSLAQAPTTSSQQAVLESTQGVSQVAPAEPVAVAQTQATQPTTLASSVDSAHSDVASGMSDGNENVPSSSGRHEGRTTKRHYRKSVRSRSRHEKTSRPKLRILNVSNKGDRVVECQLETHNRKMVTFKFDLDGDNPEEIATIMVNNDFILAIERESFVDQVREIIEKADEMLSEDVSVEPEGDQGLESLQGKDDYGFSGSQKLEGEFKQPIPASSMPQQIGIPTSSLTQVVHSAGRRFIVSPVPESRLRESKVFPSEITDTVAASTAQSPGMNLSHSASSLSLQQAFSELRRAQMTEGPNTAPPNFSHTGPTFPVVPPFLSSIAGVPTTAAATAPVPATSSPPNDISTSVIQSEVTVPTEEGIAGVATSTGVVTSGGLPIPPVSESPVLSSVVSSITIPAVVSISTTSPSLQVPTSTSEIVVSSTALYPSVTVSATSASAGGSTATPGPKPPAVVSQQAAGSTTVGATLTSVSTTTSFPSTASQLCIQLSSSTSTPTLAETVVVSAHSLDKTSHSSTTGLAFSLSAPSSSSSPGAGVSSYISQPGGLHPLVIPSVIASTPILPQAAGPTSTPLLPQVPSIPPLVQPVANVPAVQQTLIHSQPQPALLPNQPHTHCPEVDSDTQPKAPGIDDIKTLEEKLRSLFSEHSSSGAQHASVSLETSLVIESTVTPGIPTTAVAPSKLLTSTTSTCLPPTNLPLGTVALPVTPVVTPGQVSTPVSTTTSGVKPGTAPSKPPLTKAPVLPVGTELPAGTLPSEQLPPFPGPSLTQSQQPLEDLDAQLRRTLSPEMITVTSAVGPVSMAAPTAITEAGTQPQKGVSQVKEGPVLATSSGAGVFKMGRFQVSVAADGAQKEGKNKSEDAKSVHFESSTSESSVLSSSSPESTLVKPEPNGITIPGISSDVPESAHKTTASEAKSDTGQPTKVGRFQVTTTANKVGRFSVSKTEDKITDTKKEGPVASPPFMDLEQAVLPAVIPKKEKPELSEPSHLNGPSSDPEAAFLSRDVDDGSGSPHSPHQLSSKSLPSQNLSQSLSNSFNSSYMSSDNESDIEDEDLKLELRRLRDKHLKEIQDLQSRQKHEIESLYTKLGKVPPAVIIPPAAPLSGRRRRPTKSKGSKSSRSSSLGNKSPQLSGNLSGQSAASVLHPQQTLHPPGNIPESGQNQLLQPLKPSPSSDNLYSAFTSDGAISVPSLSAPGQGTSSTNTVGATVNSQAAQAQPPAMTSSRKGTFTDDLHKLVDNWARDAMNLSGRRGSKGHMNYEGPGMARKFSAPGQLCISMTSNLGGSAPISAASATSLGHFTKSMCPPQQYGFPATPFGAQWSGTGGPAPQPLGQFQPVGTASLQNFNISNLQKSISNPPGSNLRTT
# TEST_DESCRIPTION: radiometric filter-binding kinase assay
# CONDITION_INFO: compound 1.0 µM
MEASUREMENT_NAME: residual activity (%)
Hi! Could you send only the number? It should be in %, unit omitted.

# compound `COc1ccc(N(C(=O)Nc2c(C)cccc2C)c2cc(Nc3ccc(N4CCN(C)CC4)cc3)ncn2)c(OC)c1` ; its residual activity = 102

# compound CNC(=O)C1[C@H]2O[C@@](C)([C@@H]1N)n1c3ccccc3c3c4c(c5c6ccccc6n2c5c31)C(=O)NC4 (stereo partly drawn) ; its residual activity = 86

# compound `COc1cc(C(=O)N2CCOCC2)c(F)cc1Nc1ncc(C(F)(F)F)c(NC2CC2)n1` ; its residual activity = 97

# compound `CCNc1nc(Nc2cc(F)c(C(=O)N3CCOCC3)cc2OC)ncc1C(F)(F)F` ; its residual activity = 103

# compound C=C1C(=O)OC2C1CC/C(C)=C/CCC1(C)OC21 (stereo not drawn) ; its residual activity = 112

# compound Nc1cccc2c1CN(C1CCC(=O)NC1=O)C2=O (stereo not drawn) ; its residual activity = 104

# compound `CCn1c(-c2nonc2N)nc2cncc(CNC3CCNCC3)c21` ; its residual activity = 102

# compound `CN(C)C/C=C/C(=O)Nc1cccc(C(=O)Nc2ccc(Nc3nccc(-c4cccnc4)n3)cc2)c1` ; its residual activity = 117

# compound `O=C(Nc1cccnc1)c1cc(-c2ccnc(F)c2)ccc1OCc1ccccc1` ; its residual activity = 104

# compound `CNc1nc(-c2ccc3c(N)n[nH]c3c2)cc(N2C[C@@H](C(=O)NC3CCCCC3)CC[C@H]2C)n1` ; its residual activity = 109

# compound CC1=C(CO)C(=O)O[C@@H]([C@@H](C)[C@H]2CC[C@H]3[C@@H]4C[C@H]5O[C@]56[C@@H](O)C=CC(=O)[C@]6(C)C4CC[C@]23C)C1 (stereo partly drawn) ; its residual activity = 111

# compound `Cc1ccc(-c2ccc3c(ccc4sc5c(c43)NC[C@@H](C)NC5=O)n2)cn1` ; its residual activity = 108

# compound COc1cc(O)c2c(c1)[C@H]1OC1C[C@H](O)[C@H](O)C(=O)/C=C\C[C@H](C)OC2=O (stereo partly drawn) ; its residual activity = 106
